Each entry below carries its reported %Inh.
System: GRK3;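 further: KINOMEscan kinase panel screen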
Construct: gene ADRBK2
measurement_parameters: concentration: 1 μM, replicates: in singlicate; n = 1
Express it in %; write the number only.

Quick check: %Inh of Cc1cccc(-c2nc(Nc3ccncc3)c3ccccc3n2)n1 [GW855857] ?
0

Consider the compound shown here: Clc1cc(Cl)cc(Nc2ccnc(Nc3cc(Cl)cc(Cl)c3)n2)c1 [GSK175726] What is its recorded %Inh?
7

What measured %Inh goes with COc1ccc2nc(-c3cccc(C)n3)nc(Nc3ccncc3)c2c1 [GSK204919] ?
43

GET /values?readout=%Inh&item= Cc1cc(-c2ccc3c(c2)CC[C@@H](N[C@@H](C)c2ccccc2)C3)cnc1N.Cl [GW412617]
17

Attention now turns to another entry.
Quick check: %Inh of O=C1NC(=O)C(N2CCc3ccccc32)=C1c1ccccc1Cl [SB-373598] ?
0
